# method.description: Octanol/saline distribution (partition coefficient Pc), shake-flask technique
endpoint.name: logD

See these solved cases before continuing.
| compound | endpoint.name | measurement |
| --- | --- | --- |
| CCCCCCCCCCCCCCCCCC(=O)OC[C@H](COP(=O)([O-])OCC[N+](C)(C)C)OC(=O)CCCNC(=O)Cc1c(C)n(C(=O)c2ccc(Cl)cc2)c2ccc(OC)cc12 [Indo n=3] | logD | 2.5 |
| CCCCCCCCCCCCCCCCCC(=O)OC[C@H](COP(=O)([O-])OCC[N+](C)(C)C)OC(=O)CCCCCCCNC(=O)Cc1c(C)n(C(=O)c2ccc(Cl)cc2)c2ccc(OC)cc12 [Indo n=7] | logD | 3.7 |
| CCCCCCCCCCCCCCCCCC(=O)OC[C@H](COP(=O)([O-])OCC[N+](C)(C)C)OC(=O)CCNC(=O)Cc1ccccc1Nc1c(Cl)cccc1Cl [DCF n=2] | logD | 2.8 |

1: CCCCCCCCCCCCCCCCCC(=O)OC[C@H](COP(=O)([O-])OCC[N+](C)(C)C)OC(=O)CCNC(=O)C(C)c1ccc(CC(C)C)cc1 (stereo partly drawn) [Ibu n=2]
2: CCCCCCCCCCCCCCCCCC(=O)OC[C@H](COP(=O)([O-])OCC[N+](C)(C)C)OC(=O)CCCCCNC(=O)Cc1c(C)n(C(=O)c2ccc(Cl)cc2)c2ccc(OC)cc12 [Indo n=5]
Look at 1 and 2 . Which one has the lower recorded logD number? API: response body contains the label of the selected item.
1
